biological target: Dipeptidyl peptidase 2 (Homo sapiens, UniProt Q9UHL4); test: Inhibition of human seminal plasma DPP2 assessed as pNA release from Lys-Ala-p-nitroanilide substrate pre-incubated with enzyme for 15 min prior to substrate addition by fluorescence technique

{"Query smiles": "CC(C)c1cc(C(C)C)c(S(=O)(=O)N2CCN(C(=O)C[C@H](N)C(=O)N3Cc4ccccc4C3)CC2)c(C(C)C)c1", "IC50": "> 25 µM"}
{"Query smiles": "N[C@@H](CC(=O)N1CCC(N2CCCCC2)CC1)C(=O)N1Cc2ccccc2C1", "IC50": "> 100 µM"}

----------
target: Dipeptidyl peptidase 4 (Homo sapiens, UniProt P27487); experiment: Inhibition of human seminal plasma DPP4 assessed as pNA release from Gly-Pro-p-nitroanilide substrate pre-incubated with enzyme for 15 min prior to substrate addition by fluorescence technique
Sequence (P27487 whole entry): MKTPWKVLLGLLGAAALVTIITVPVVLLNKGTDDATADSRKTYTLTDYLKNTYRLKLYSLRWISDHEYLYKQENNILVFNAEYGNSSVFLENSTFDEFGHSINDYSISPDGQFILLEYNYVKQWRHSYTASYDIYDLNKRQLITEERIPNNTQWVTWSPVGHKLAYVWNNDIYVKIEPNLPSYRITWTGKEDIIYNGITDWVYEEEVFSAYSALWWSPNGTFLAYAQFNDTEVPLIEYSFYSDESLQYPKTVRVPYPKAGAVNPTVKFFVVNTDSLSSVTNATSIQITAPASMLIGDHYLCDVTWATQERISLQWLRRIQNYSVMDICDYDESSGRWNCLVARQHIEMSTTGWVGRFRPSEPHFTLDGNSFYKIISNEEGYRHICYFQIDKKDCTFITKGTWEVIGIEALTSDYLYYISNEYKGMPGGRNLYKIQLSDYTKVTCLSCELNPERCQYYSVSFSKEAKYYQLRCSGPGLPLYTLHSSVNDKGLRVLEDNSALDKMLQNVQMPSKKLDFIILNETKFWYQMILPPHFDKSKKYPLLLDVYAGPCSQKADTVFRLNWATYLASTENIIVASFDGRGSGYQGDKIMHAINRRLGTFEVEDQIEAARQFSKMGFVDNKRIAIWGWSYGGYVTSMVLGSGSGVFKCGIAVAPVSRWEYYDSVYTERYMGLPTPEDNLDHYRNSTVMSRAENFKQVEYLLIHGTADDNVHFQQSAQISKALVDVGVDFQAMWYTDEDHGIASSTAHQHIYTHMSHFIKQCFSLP
Observed property: IC50

{"Compound": "N[C@@H](CC(=O)N1CCC(N2CCCCC2)CC1)C(=O)N1Cc2ccccc2C1", "Data value": "> 100 µM"}
{"Compound": "N[C@@H](CC(=O)N1CCN(Cc2ccc3ccccc3c2)CC1)C(=O)N1Cc2ccccc2C1", "Data value": "> 100 µM"}
{"Compound": "N[C@@H](CC(=O)N1CCC[C@H]1C(=O)NC(c1ccc(F)cc1)c1ccc(F)cc1)C(=O)N1Cc2ccccc2C1", "Data value": "> 100 µM"}
{"Compound": "N[C@@H](CC(=O)N1CCN(C(c2ccc(F)cc2)c2ccc(F)cc2)C(=O)C1)C(=O)N1Cc2ccccc2C1", "Data value": "> 100 µM"}
{"Compound": "N[C@@H](CC(=O)N1CCN(C(c2ccccc2)c2ccc(Cl)cc2)CC1)C(=O)N1Cc2ccccc2C1 (stereo not given in full)", "Data value": "> 50 µM"}
{"Compound": "N[C@@H](CC(=O)NC12CC3CC(CC(O)(C3)C1)C2)C(=O)N1Cc2ccccc2C1", "Data value": "> 100 µM"}
{"Compound": "N[C@@H](CC(=O)N1CCN(Cc2c(F)cccc2Cl)CC1)C(=O)N1Cc2ccccc2C1", "Data value": "> 100 µM"}
{"Compound": "N[C@@H](CC(=O)N1CCC[C@H]1C(=O)N1CCN(C(c2ccc(F)cc2)c2ccc(F)cc2)CC1)C(=O)N1Cc2ccccc2C1", "Data value": "> 100 µM"}
{"Compound": "N[C@@H](CC(=O)N1CCN(C(c2ccccc2)c2ccc(Cl)cc2)CC1)C(=O)N1Cc2ccc(F)cc2C1 (stereo not given in full)", "Data value": "> 100 µM"}
{"Compound": "N[C@@H](CC(=O)NC(c1ccccc1)c1ccccc1)C(=O)N1Cc2ccccc2C1", "Data value": "> 100 µM"}
{"Compound": "N[C@@H](CC(=O)N1CCN(C(=O)c2cccc(-c3ccccc3)c2)CC1)C(=O)N1Cc2ccccc2C1", "Data value": "> 100 µM"}
{"Compound": "C[C@@H]1CN(C(=O)C[C@H](N)C(=O)N2Cc3ccccc3C2)CCN1C(c1ccc(F)cc1)c1ccc(F)cc1", "Data value": "> 50 µM"}
{"Compound": "CC(C)c1cc(C(C)C)c(S(=O)(=O)N2CCN(C(=O)C[C@H](N)C(=O)N3Cc4ccccc4C3)CC2)c(C(C)C)c1", "Data value": "> 100 µM"}
{"Compound": "N[C@@H](CC(=O)NC(c1ccc(F)cc1)c1ccc(F)cc1)C(=O)N1Cc2ccccc2C1", "Data value": "> 100 µM"}
{"Compound": "N[C@@H](CC(=O)N1CCN(C(c2ccc(F)cc2)c2ccc(F)cc2)CC1)C(=O)N1Cc2ccc(F)cc2C1", "Data value": "> 50 µM"}
{"Compound": "N#Cc1ccccc1-c1ccc(CN2CCN(C(=O)C[C@H](N)C(=O)N3Cc4ccccc4C3)CC2)cc1", "Data value": "> 100 µM"}
{"Compound": "N[C@@H](CC(=O)N1C[C@H]2C[C@@H]1CN2C(c1ccc(F)cc1)c1ccc(F)cc1)C(=O)N1Cc2ccccc2C1", "Data value": "> 100 µM"}
{"Compound": "N[C@@H](CC(=O)NC1CCN(C(c2ccc(F)cc2)c2ccc(F)cc2)C1)C(=O)N1Cc2ccccc2C1 (stereo not given in full)", "Data value": "> 100 µM"}
{"Compound": "COc1ccc2ccccc2c1CN[C@@H]1CN[C@H](C(=O)N2Cc3ccccc3C2)C1", "Data value": "> 100 µM"}
{"Compound": "N[C@@H](CCC(=O)N1CCN(C(c2ccc(F)cc2)c2ccc(F)cc2)CC1)C(=O)N1Cc2ccccc2C1", "Data value": "> 100 µM"}
